These entries and their values trace back to patent US11684607B2.

- test_method_notes: Effect of a single 2 g dose of SYM-1219 on the plasma pharmacokinetics of EE2 and NET in healthy female subjects
- Type: in vivo, human
- recorded_conditions: female, human, plasma, Group B1 Period 2: EE2/NET followed by SYM-1219 2 grams on Day 1; read-out: NET Cmax, Mean
measurement_kind: Cmax (ng/mL)
Give the number; ng/mL is assumed, so skip it.

Task: What value of measured Cmax is listed for C#C[C@]1(O)CC[C@H]2[C@@H]3CCC4=CC(=O)CC[C@@H]4[C@H]3CC[C@@]21C [NET, norethindrone] ?
Result: 10.1

----------
- test_method_notes: Effect of a single 2 g dose of SYM-1219 on the plasma pharmacokinetics of EE2 and NET in healthy female subjects
- Assay type: in vivo, human
- recorded_conditions: female, human, plasma, Group B1 Period 1: EE2/NET alone; read-out: EE2 Cmax, Geometric Least Squares (LS) Means
measurement_kind: Cmax (ng/mL)
Provide the reading as a plain figure in ng/mL.

Task: Would you kindly share the measured Cmax for C#C[C@]1(O)CC[C@H]2[C@@H]3CCc4cc(O)ccc4[C@H]3CC[C@@]21C ?
Result: 0.0779

----------
- test_method_notes: Effect of a single 2 g dose of SYM-1219 on the plasma pharmacokinetics of EE2 and NET in healthy female subjects
- Assay type: in vivo, human
- recorded_conditions: female, human, plasma, Group B2 Period 2: SYM-1219 2 grams on Day 1, EE2/NET on Day 2; read-out: EE2 Cmax, Geometric Least Squares (LS) Means
measurement_kind: Cmax (ng/mL)
Your answer is read as ng/mL, so omit the unit and give the number.

Task: Value lookup for Cmax; key = C#C[C@]1(O)CC[C@H]2[C@@H]3CCc4cc(O)ccc4[C@H]3CC[C@@]21C [EE2, ethinyl estradiol]
Result: 0.0872

----------
- test_method_notes: Effect of a single 2 g dose of SYM-1219 on the plasma pharmacokinetics of EE2 and NET in healthy female subjects
- Type: in vivo, human
- recorded_conditions: female, human, plasma, Group B2 Period 1: EE2/NET alone; read-out: NET Cmax, Median
- Protocol: Methods: Fifty-four (54) healthy female subjects, ages 18-65, received EE2/NET alone and in combination, where SYM-1219+EE2/NET were co-administered on Day 1 (Group B1; N=27) or SYM-1219 on Day 1 and EE2/NET on Day 2 (Group B2; N=27). Serial blood samples were drawn to measure plasma concentrations of EE2/NET. […] Safety was evaluated by recording of adverse events, vital signs, ECGs and standard laboratory tests.
measurement_kind: Cmax (ng/mL)
Write the value in ng/mL as a bare number.

Task: Item C#C[C@]1(O)CC[C@H]2[C@@H]3CCC4=CC(=O)CC[C@@H]4[C@H]3CC[C@@]21C has what recorded Cmax?
Result: 8.16

----------
- test_method_notes: Effect of a single 2 g dose of SYM-1219 on the plasma pharmacokinetics of EE2 and NET in healthy female subjects
- Format: in vivo, human
- recorded_conditions: female, human, plasma, Group B1 Period 2: EE2/NET followed by SYM-1219 2 grams on Day 1; read-out: EE2 AUC0-t, Mean
measurement_kind: AUC(0-t)
Give the number first and the unit second.

Task: For the compound shown here, C#C[C@]1(O)CC[C@H]2[C@@H]3CCc4cc(O)ccc4[C@H]3CC[C@@]21C [EE2, ethinyl estradiol] , give the reported AUC(0-t).
Result: 0.616 ng·h/mL
